Data provenance: the supplement of paper PMC9233669

Catalogue of self-aminoacylation values
test system: biotinyl-Phe-oxazolone; assay: self-aminoacylation, catalytic enhancement (BFO) (fold over background); higher = more active; k-Seq, kA / k0A0; sequences stand for … in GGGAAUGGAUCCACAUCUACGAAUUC…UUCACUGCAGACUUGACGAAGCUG
Variants at the floor of the assay were thinned out.
Give only the figure.

# example entries with known answers
* CCACACUCCAAGCAAUCAGUC [Fam1B.1 aminoacylation ribozyme variant] | 1.54
* AAGUUUGCUAAUAUUCUCAAG [Fam3.1 aminoacylation ribozyme variant] | 1.04
* GUACUUCAAACAACCGGUCUG [Fam1A.1 aminoacylation ribozyme variant] | 4.78
* AAGUUUGCUAAUAGCCGCAAG [Fam3.1 aminoacylation ribozyme variant] | 6.96

Here AAGUUUGCUACUAGUCGCAUG [Fam3.1 aminoacylation ribozyme variant] was tested on biotinyl-Phe-oxazolone, and its self-aminoacylation came to 1.11

Lab entry: biotinyl-Phe-oxazolone assay, sequence AUUCACCUAGGUCUUCGGGUG [Fam2.2 aminoacylation ribozyme variant] , self-aminoacylation = 27.4
